- experiment: In vitro cytotoxicity, 3T3 NRU test
- Assay type: cell-based
- run-parameters: mouse, BALB/3T3 clone A31 mouse embryo cells, 24 h incubation, 15 to 2000 μM, read-out: IC50 of Mean ± SD Cytotoxicity BALB 3T3 (CC50)
Non-standard residues stand in square brackets, D forms with d. Residues, ends and D or L forms follow the SMILES beside them. *: point of attachment. Caffeoyl = O=C(/C=C/c1ccc(O)c(O)c1)*; βAla = NCCC(=O)O
measured-property: CC50 at 24 h
Note to self: number, then unit, no commentary.

I'd like to know its CC50 at 24 h. The compound in question is CC(C)C[C@H](NC(=O)[C@H](CCCCN)NC(=O)CCNC(=O)[C@H](CC(C)C)NC(=O)[C@H](CCCCN)NC(=O)[C@H](CCCCN)NC(=O)CCNC(=O)[C@H](CC(C)C)NC(=O)[C@H](CCCCN)NC(=O)CCNC(=O)[C@H](CC(C)C)NC(=O)[C@@H](N)CCCCN)C(=O)NCCC(=O)N[C@@H](CCCCN)C(N)=O [Si5, (KLβ-AKLβ-AK)2-NH2] (H-KL[βAla]KL[βAla]KKL[βAla]KL[βAla]K-NH2)
1270 µM

I'd like to know its CC50 at 24 h. The compound in question is CC(C)C[C@H](NC(=O)[C@H](CCCCN)NC(=O)/C=C/c1ccc(O)c(O)c1)C(=O)NCCC(=O)N[C@@H](CCCCN)C(=O)N[C@@H](CC(C)C)C(=O)NCCC(=O)N[C@@H](CCCCN)C(=O)N[C@@H](CCCCN)C(=O)N[C@@H](CC(C)C)C(=O)NCCC(=O)N[C@@H](CCCCN)C(=O)N[C@@H](CC(C)C)C(=O)NCCC(=O)N[C@@H](CCCCN)C(N)=O [Si12, Caf-(KLβ-AKLβ-AK)2-NH2] (Caffeoyl-KL[βAla]KL[βAla]KKL[βAla]KL[βAla]K-NH2)
880 µM

I'd like to know its CC50 at 24 h. The compound in question is CC(C)C[C@H](NC(=O)[C@H](CCCCN)NC(=O)CN1C(=O)c2cccc3cccc(c23)C1=O)C(=O)N[C@@H](C)C(=O)N[C@@H](CCCCN)C(=O)N[C@@H](CC(C)C)C(=O)N[C@@H](C)C(=O)N[C@@H](CCCCN)C(=O)N[C@@H](CCCCN)C(=O)N[C@@H](CC(C)C)C(=O)N[C@@H](C)C(=O)N[C@@H](CCCCN)C(=O)N[C@@H](CC(C)C)C(=O)N[C@@H](C)C(=O)N[C@@H](CCCCN)C(N)=O
185 µM

I'd like to know its CC50 at 24 h. The compound in question is CC(C)C[C@H](NC(=O)[C@H](CCCCN)NC(=O)/C=C/c1ccc(O)c(O)c1)C(=O)N[C@@H](C)C(=O)N[C@@H](CCCCN)C(=O)N[C@@H](CC(C)C)C(=O)N[C@@H](C)C(=O)N[C@@H](CCCCN)C(=O)N[C@@H](CCCCN)C(=O)N[C@@H](CC(C)C)C(=O)N[C@@H](C)C(=O)N[C@@H](CCCCN)C(=O)N[C@@H](CC(C)C)C(=O)N[C@@H](C)C(=O)N[C@@H](CCCCN)C(N)=O
173 µM
